testDescription: Phase 1 trial: plasma pharmacokinetics
Type: in vivo
runConditions: human, oral, 40 mg, Cycle 1 Day 28, 40 mg BID (n = 3), read-out: AUC0–12 h mean
measuredMetric: AUC(0-t) (ng·h/mL)
Report the figure in ng·h/mL without appending any unit label.

Entry under review: COc1ccc(CN2C3CC2CN(c2ccc(-c4cc(N5CC(C)(O)C5)cn5ncc(C#N)c45)cn2)C3)cn1 [SY-5007] . Reported AUC(0-t)?
5810

###

testDescription: Pharmacokinetics in rats
Format: in vivo, SD rats
runConditions: both sexes, SD, rat, plasma, iv; 1 mg/kg i.v.
measuredMetric: clearance (mL/min/kg)
Give just the number in mL/min/kg; leave the unit off.

If you can, please state the reported clearance value of COc1ccc(CN2C3CC2CN(c2ccc(-c4cc(N5CC(C)(O)C5)cn5ncc(C#N)c45)cn2)C3)cn1 .
3.42

###

testDescription: Phase 1 trial: plasma pharmacokinetics
Format: in vivo
runConditions: human, 200 mg, Cycle 1 Day 28, 200 mg BID (n = 5), read-out: AUCINF_obs mean
measuredMetric: AUC(0-inf) (ng·h/mL)
Field format: number, assumed ng·h/mL, no unit text.

Give the measured AUC(0-inf) of COc1ccc(CN2C3CC2CN(c2ccc(-c4cc(N5CC(C)(O)C5)cn5ncc(C#N)c45)cn2)C3)cn1 [SY-5007] .
63700

###

testDescription: Phase 1 trial: plasma pharmacokinetics
Assay type: in vivo
runConditions: human, oral, 80 mg, Cycle 1 Day 28, 80 mg BID (n = 3), read-out: Tmax mean
measuredMetric: Tmax (h)
Enter your answer as a number in h; do not include the unit.

Could you tell me which Tmax is on file for COc1ccc(CN2C3CC2CN(c2ccc(-c4cc(N5CC(C)(O)C5)cn5ncc(C#N)c45)cn2)C3)cn1 ?
1

###

testDescription: Pharmacokinetics in beagles
Type: in vivo
runConditions: both sexes, beagle, dog, plasma, po; gavage 2.5 mg/kg
measuredMetric: AUC(0-inf) (ng·h/mL)
Give a bare numeral; the unit ng·h/mL is implied.

Any idea what AUC(0-inf) was measured for COc1ccc(CN2C3CC2CN(c2ccc(-c4cc(N5CC(C)(O)C5)cn5ncc(C#N)c45)cn2)C3)cn1 ?
3760

###

testDescription: Phase 1 trial: plasma pharmacokinetics
Assay type: in vivo
runConditions: human, 160 mg, Cycle 1 Day 1, 160 mg BID (n = 23), read-out: MRTINF_obs mean
measuredMetric: MRT inf (h)
Enter your answer as a number in h; do not include the unit.

Field request: MRT inf | item: COc1ccc(CN2C3CC2CN(c2ccc(-c4cc(N5CC(C)(O)C5)cn5ncc(C#N)c45)cn2)C3)cn1
8.2

###

testDescription: 28-day repeat-dose toxicity
Format: in vivo
runConditions: female, SD, rat, plasma, po; females 60 mg/kg; read-out: AUClast at STD10, day 28
measuredMetric: AUC(0-t) (µg·h/mL)
Reply numerically in µg·h/mL, unit not repeated.

# AUC(0-t) lookup, item COc1ccc(CN2C3CC2CN(c2ccc(-c4cc(N5CC(C)(O)C5)cn5ncc(C#N)c45)cn2)C3)cn1
122

###

testDescription: Plasma protein binding, rapid equilibrium dialysis
Type: in vitro ADME
runConditions: dog, read-out: Plasma protein binding rate (converted)
measuredMetric: fraction unbound
Lab note: jot the number down without any unit.

Find the recorded fraction unbound belonging to COc1ccc(CN2C3CC2CN(c2ccc(-c4cc(N5CC(C)(O)C5)cn5ncc(C#N)c45)cn2)C3)cn1 and report it.
0.042

###

testDescription: Phase 1 trial: plasma pharmacokinetics
Assay type: in vivo
runConditions: human, 200 mg, Cycle 1 Day 28, 200 mg BID (n = 5), read-out: Cmax mean
measuredMetric: Cmax (ng/mL)
Enter your answer as a number in ng/mL; do not include the unit.

Given COc1ccc(CN2C3CC2CN(c2ccc(-c4cc(N5CC(C)(O)C5)cn5ncc(C#N)c45)cn2)C3)cn1 , state its recorded Cmax.
5520

###

testDescription: Pharmacokinetics in rats
Type: in vivo, SD rats
runConditions: both sexes, SD, rat, plasma, po; gavage 5 mg/kg
measuredMetric: Cmax (ng/mL)
Use ng/mL as the unit, but write only the number.

Field request: Cmax | item: COc1ccc(CN2C3CC2CN(c2ccc(-c4cc(N5CC(C)(O)C5)cn5ncc(C#N)c45)cn2)C3)cn1 [SY-5007]
2190

###

testDescription: Plasma protein binding, rapid equilibrium dialysis
Assay type: in vitro ADME
runConditions: monkey, read-out: Plasma protein binding rate (converted)
measuredMetric: fraction unbound
No unit in the answer, only the number.

// fraction unbound lookup, key: COc1ccc(CN2C3CC2CN(c2ccc(-c4cc(N5CC(C)(O)C5)cn5ncc(C#N)c45)cn2)C3)cn1
0.023

###

targetEntity: CYP2C19 (Homo sapiens, UniProt P33261)
Construct: substrates of different CYP450 enzymes in mixed human liver microsomes; from tissue; host or cells: mixed human liver microsomes
Sequence (P33261 whole entry): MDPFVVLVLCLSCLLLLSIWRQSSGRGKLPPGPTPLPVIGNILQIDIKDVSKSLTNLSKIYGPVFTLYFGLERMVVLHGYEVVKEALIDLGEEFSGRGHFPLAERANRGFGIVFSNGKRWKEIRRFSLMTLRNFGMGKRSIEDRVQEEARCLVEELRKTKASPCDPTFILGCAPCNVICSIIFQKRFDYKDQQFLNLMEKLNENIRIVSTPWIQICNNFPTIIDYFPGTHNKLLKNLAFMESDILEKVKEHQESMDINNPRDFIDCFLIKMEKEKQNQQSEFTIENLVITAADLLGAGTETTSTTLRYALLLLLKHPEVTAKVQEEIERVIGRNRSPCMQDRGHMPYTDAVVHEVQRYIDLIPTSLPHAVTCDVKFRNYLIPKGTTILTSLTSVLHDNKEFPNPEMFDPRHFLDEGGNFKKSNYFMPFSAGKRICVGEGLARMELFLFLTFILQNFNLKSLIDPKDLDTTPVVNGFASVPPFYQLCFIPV
testDescription: CYP inhibition in human liver microsomes
Type: in vitro ADME
runConditions: 0.5-25 μM
pIC50: −log10 of the molar value.
measuredMetric: pIC50

API: value(readout=pIC50, system=CYP2C19 (Homo sapiens, UniProt P33261)) for record COc1ccc(CN2C3CC2CN(c2ccc(-c4cc(N5CC(C)(O)C5)cn5ncc(C#N)c45)cn2)C3)cn1
< 4.60

###

testDescription: Acute toxicity, single oral gavage
Format: in vivo
runConditions: female, SD, rat, in vivo, oral; females; read-out: MTD, single dose
measuredMetric: MTD (mg/kg)
Return type: number; implicit unit mg/kg.

Consider the molecule shown here: COc1ccc(CN2C3CC2CN(c2ccc(-c4cc(N5CC(C)(O)C5)cn5ncc(C#N)c45)cn2)C3)cn1 What is its recorded MTD?
500

###

testDescription: Phase 1 trial: plasma pharmacokinetics
Assay type: in vivo
runConditions: human, 120 mg, Cycle 1 Day 1, 120 mg BID (n = 3), read-out: AUCINF_obs mean
measuredMetric: AUC(0-inf) (ng·h/mL)
Dear colleague, please return just the value in ng·h/mL, with no unit written.

Endpoint output: AUC(0-inf) of COc1ccc(CN2C3CC2CN(c2ccc(-c4cc(N5CC(C)(O)C5)cn5ncc(C#N)c45)cn2)C3)cn1 . Value?
14100

###

System: Baf3-CCDC6-RET V804M cells
testDescription: Proliferation assay (CellTiter-Glo)
Assay type: cell-based, murine
runConditions: Mus musculus, read-out: Cellular Viability IC50
measuredMetric: pIC50
Scale: negative log10 of molar concentration, which is what pIC50 denotes.

So what's the measured pIC50 for this one? COc1ccc(CN2C3CC2CN(c2ccc(-c4cc(N5CC(C)(O)C5)cn5ncc(C#N)c45)cn2)C3)cn1 [SY-5007]
7.57

###

testDescription: Plasma protein binding, rapid equilibrium dialysis
Format: in vitro ADME
runConditions: mouse, read-out: Plasma protein binding rate
measuredMetric: fraction unbound
Reply with just the number.

Looking for the measured fraction unbound of COc1ccc(CN2C3CC2CN(c2ccc(-c4cc(N5CC(C)(O)C5)cn5ncc(C#N)c45)cn2)C3)cn1 [SY-5007] , can you help?
0.01

###

testDescription: Acute toxicity, single oral gavage
runConditions: both sexes, beagle, dog, in vivo, read-out: MTD, single dose
measuredMetric: MTD

Which MTD reading was recorded for the compound COc1ccc(CN2C3CC2CN(c2ccc(-c4cc(N5CC(C)(O)C5)cn5ncc(C#N)c45)cn2)C3)cn1 ?
200 mg/kg

###

testDescription: Phase 1 trial: plasma pharmacokinetics
Format: in vivo
runConditions: human, 160 mg, Cycle 1 Day 28, 160 mg BID (n = 15), read-out: Cmax mean
measuredMetric: Cmax

Param item = COc1ccc(CN2C3CC2CN(c2ccc(-c4cc(N5CC(C)(O)C5)cn5ncc(C#N)c45)cn2)C3)cn1 ; retrieve measured Cmax.
4.73 µg/mL

###

testDescription: Tissue distribution in rats
Assay type: in vivo
runConditions: both sexes, rat, liver, po; 20 mg/kg gavage; read-out: Liver exposure (AUC0~24h)
measuredMetric: Kp
Give only the figure.

So what does the record say about Kp for COc1ccc(CN2C3CC2CN(c2ccc(-c4cc(N5CC(C)(O)C5)cn5ncc(C#N)c45)cn2)C3)cn1 ?
3.58

###

testDescription: Pharmacokinetics in beagles
Format: in vivo
runConditions: both sexes, beagle, dog, plasma, po; gavage 5 mg/kg
measuredMetric: AUC(0-inf) (ng·h/mL)
The answer is to be given in ng·h/mL; state only the numeric part.

Entry under review: COc1ccc(CN2C3CC2CN(c2ccc(-c4cc(N5CC(C)(O)C5)cn5ncc(C#N)c45)cn2)C3)cn1 . Reported AUC(0-inf)?
9850

###

targetEntity: RET^G810S (Homo sapiens, UniProt P07949, G810S)
Construct: RET (residues 658-1114) was cloned into pFastBac vector containing an N-terminal Glutathione S-transferase (GST) tag
Sequence (P07949 658-1114 G810S): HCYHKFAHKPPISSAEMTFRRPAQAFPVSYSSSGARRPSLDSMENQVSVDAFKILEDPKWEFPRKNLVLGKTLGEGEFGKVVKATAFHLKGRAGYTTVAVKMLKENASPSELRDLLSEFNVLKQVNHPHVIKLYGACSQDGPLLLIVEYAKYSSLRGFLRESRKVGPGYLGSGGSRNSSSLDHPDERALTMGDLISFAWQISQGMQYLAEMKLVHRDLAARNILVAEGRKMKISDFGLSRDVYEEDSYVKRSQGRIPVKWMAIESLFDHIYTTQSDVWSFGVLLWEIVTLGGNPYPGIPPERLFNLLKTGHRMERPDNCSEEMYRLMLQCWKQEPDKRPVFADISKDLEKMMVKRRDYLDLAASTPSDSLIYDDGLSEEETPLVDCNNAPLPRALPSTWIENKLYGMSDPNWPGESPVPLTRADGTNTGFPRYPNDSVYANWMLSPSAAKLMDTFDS
testDescription: HTRF kinEASE-TK kinase assay
runConditions: ATP at Km; read-out: Biochemical IC50 RET^G810S
measuredMetric: pIC50
Friendly reminder that pIC50 comes from taking -log10 of the concentration in mol/L.

So what pIC50 did COc1ccc(CN2C3CC2CN(c2ccc(-c4cc(N5CC(C)(O)C5)cn5ncc(C#N)c45)cn2)C3)cn1 get with RET^G810S (Homo sapiens, UniProt P07949, G810S)?
8.68
